Target Of Assay: Tyrosine-protein phosphatase non-receptor type 1 (Homo sapiens, UniProt P18031)
Sequence (P18031 whole entry): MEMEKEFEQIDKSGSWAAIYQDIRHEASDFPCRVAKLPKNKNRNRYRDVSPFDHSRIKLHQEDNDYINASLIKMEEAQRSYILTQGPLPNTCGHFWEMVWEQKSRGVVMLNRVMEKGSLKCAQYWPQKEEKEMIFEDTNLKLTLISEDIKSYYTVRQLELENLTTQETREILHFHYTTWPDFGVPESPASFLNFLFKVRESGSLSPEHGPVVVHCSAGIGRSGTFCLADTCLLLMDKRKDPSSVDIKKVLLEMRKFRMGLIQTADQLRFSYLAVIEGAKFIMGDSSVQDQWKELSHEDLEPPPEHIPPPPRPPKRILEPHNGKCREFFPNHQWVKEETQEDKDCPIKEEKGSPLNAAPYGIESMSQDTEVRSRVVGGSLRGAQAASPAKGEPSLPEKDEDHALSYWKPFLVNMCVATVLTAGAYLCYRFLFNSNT
Value Kind: pIC50
Scale for pIC50: -log10 of concentration given in mol/L; no unit attached.

Task item: Please state recorded pIC50 (tested on Tyrosine-protein phosphatase non-receptor type 1 (Homo sapiens, UniProt P18031)) of CC1=C2C(=O)[C@H]3[C@@H](CC=C4C[C@@H](OC=O)CC[C@@]43C)[C@@H]2CC[C@]12O[C@@H]1C[C@H](C)CN[C@H]1[C@H]2C
Reply: 4.95

Hello, the source for this data is ChEMBL document CHEMBL3580545, in case you need it.
